Assay: Cytotoxic activity against HEK293 cells assessed as reduction in cell viability incubated for 6 hrs
Type: cell-based
Conditions: human
PROPERTY_MEASURED: CC50 at 6 h

Query: Given CCCCNc1nc(N)nc2ccc(C(C)O)cc12 (centres undefined) , state its recorded CC50 at 6 h.
Response: > 18 µM

Query: Given CCCCNc1nc(N)nc2cccc(C(=O)NC(C)C)c12 , state its recorded CC50 at 6 h.
Response: > 25 µM

Query: Given CCCCNc1nc(N)nc2cccc(OCc3cccnc3)c12 , state its recorded CC50 at 6 h.
Response: > 25 µM

Query: Given CCCCNc1nc(N)nc2cc(C(N)=O)ccc12 , state its recorded CC50 at 6 h.
Response: > 18 µM

Query: Given CCCCNc1nc(N)nc2cccc(OC)c12 , state its recorded CC50 at 6 h.
Response: > 25 µM

Query: Given CCCCNc1nc(N)nc2cccc(OCc3nccc(OC)c3OC)c12 , state its recorded CC50 at 6 h.
Response: 16 µM

Query: Given CC(C)CCNc1nc(N)nc2ccccc12 , state its recorded CC50 at 6 h.
Response: > 25 µM

Query: Given CCCCNc1nc(N)nc2ccc(C(C)=O)cc12 , state its recorded CC50 at 6 h.
Response: > 18 µM

Query: Given CCCCNc1nc(N)nc2cccc(CC3CCCC3)c12 , state its recorded CC50 at 6 h.
Response: > 25 µM

Query: Given CCCCNc1nc(N)nc2cccc(C)c12 , state its recorded CC50 at 6 h.
Response: > 25 µM

Query: Given CCNc1nc(N)nc2ccccc12 , state its recorded CC50 at 6 h.
Response: > 25 µM

Query: Given CCCCNc1nc(N)nc2ccc(CO)cc12 , state its recorded CC50 at 6 h.
Response: > 18 µM

Query: Given COCCCNc1nc(N)nc2ccccc12 , state its recorded CC50 at 6 h.
Response: > 25 µM

Query: Given CNc1nc(N)nc2ccccc12 , state its recorded CC50 at 6 h.
Response: > 25 µM

----------
Assay: Plasma clearance in Sprague-Dawley rat at 2.5 mg/kg, iv
Type: ADME, organism-based
Exercise: for every item that follows, state its recorded clearance.
Entry rule: numbers only, all in mL/min/kg.

Query: Given CCCCNc1nc(N)nc2cccc(C(=O)N(C)Cc3ccccc3)c12 , state its recorded clearance.
Response: 55

Query: Given CCCCNc1nc(N)nc2ccccc12 , state its recorded clearance.
Response: 163

----------
Assay: AUClast in Sprague-Dawley rat portal vein at 10 mg/kg, po
Format: ADME, organism-based
Set-up: dose 10 mg/kg, time 0 - last, route oral
Exercise: for every item that follows, state its recorded AUC(0-t).
Put down the number, then write its unit next to it.

Query: Given CCCCNc1nc(N)nc2cccc(C(=O)N(C)Cc3ccccc3)c12 , state its recorded AUC(0-t).
Response: 0.621 µg·h/mL

Query: Given CCCCNc1nc(N)nc2ccccc12 , state its recorded AUC(0-t).
Response: 1.52 µg·h/mL

Query: Given CCCCNc1nc(N)nc2cccc(C(=O)N[C@@H](C)c3ccccc3)c12 , state its recorded AUC(0-t).
Response: 0.902 µg·h/mL

----------
Exercise: for every item that follows, state its recorded CC50 at 6 h.
Assay: Cytotoxic activity against HEK293 cells assessed as reduction in cell viability incubated for 6 hrs
Format: cell-based
Details: human

Query: Given CCCNc1nc(N)nc2ccccc12 , state its recorded CC50 at 6 h.
Response: > 25 µM

Query: Given CCCCNc1nc(N)nc2ccccc12 , state its recorded CC50 at 6 h.
Response: 18 to 25 µM

Query: Given CCCCNc1nc(N)nc2ccc(F)cc12 , state its recorded CC50 at 6 h.
Response: > 18 µM

Query: Given CCCCNc1nc(N)nc2cccc(OCc3ccccc3)c12 , state its recorded CC50 at 6 h.
Response: 10 µM

Query: Given CCCCNc1nc(N)nc2cccc(C(=O)N(C)Cc3ccccc3)c12 , state its recorded CC50 at 6 h.
Response: > 25 µM

Query: Given CCCCCNc1nc(N)nc2ccccc12 , state its recorded CC50 at 6 h.
Response: > 25 µM

Query: Given CCCCNc1nc(N)nc2cc(CO)ccc12 , state its recorded CC50 at 6 h.
Response: > 18 µM

Query: Given CCCCNc1nc(N)nc2cccc(OCc3ccccc3OC)c12 , state its recorded CC50 at 6 h.
Response: > 25 µM

Query: Given CCCCNc1nc(N)nc2cccc(OCc3ccccn3)c12 , state its recorded CC50 at 6 h.
Response: > 25 µM

Query: Given CCCCNc1nc(N)nc2cccc(CCc3ccccc3)c12 , state its recorded CC50 at 6 h.
Response: > 25 µM

Query: Given CCCCNc1nc(N)nc2cccc(C(=O)N[C@@H](C)c3ccccc3)c12 , state its recorded CC50 at 6 h.
Response: > 25 µM

Query: Given CCCCNc1nc(N)ncc1OCC , state its recorded CC50 at 6 h.
Response: > 25 µM

Query: Given CCCCNc1nc(N)nc2cccc(C(=O)N(C)C(C)C)c12 , state its recorded CC50 at 6 h.
Response: > 25 µM
